Attribute: MIC
system: P. aeruginosa PAO1; test: MIC determination by microbroth dilution; type: cell-based, Pseudomonas aeruginosa; settings: Pseudomonas aeruginosa
Structures can show the parent of a compound that is named as a salt.

MOLECULE	TARGET OF ASSAY	REPORTED ENDPOINT	READOUT VALUE
CN[C@@H]1[C@H](O)[C@H](NC)C2O[C@]3(O)C(OC2[C@H]1O)O[C@H](C)C[C@H]3NC(=O)c1cnccn1 (stereo partly drawn) [Compound 1453]	P. aeruginosa PAO1	MIC	> 200 µg/mL
CN[C@@H]1[C@H](O)[C@H](NC)C2O[C@]3(O)C(OC2[C@H]1O)O[C@H](C)C[C@H]3NC(=O)Cc1ccc(OC)cc1 (stereo partly drawn) [Compound 1446, Dihydrochloride]	P. aeruginosa PAO1	MIC	> 200 µg/mL

# evaluate next
Need MIC of CN[C@@H]1[C@H](O)[C@H](NC)C2O[C@]3(O)C(OC2[C@H]1O)O[C@H](C)C[C@H]3NC(=O)Cc1cccnn1 (stereo partly drawn) [Compound 1449, hydrobromide] , thanks.
> 200 µg/mL

###

Attribute: MIC
tested on: Strenotrophomonas maltophilia ATCC 13637
Structures can show the parent of a compound that is named as a salt.
Only the number, expressed in µg/mL, is required.

MOLECULE	MEASUREMENT UNITS	MIC
CN[C@@H]1[C@H](O)[C@H](NC)C2O[C@]3(O)C(OC2[C@H]1O)O[C@H](C)C[C@H]3NC(=O)CCN (some centres unmarked) [Compound 1469, Trihydrochloride]	µg/mL	25

# evaluate next
Need MIC of CN[C@@H]1[C@H](O)[C@H](NC)C2O[C@]3(O)C(OC2[C@H]1O)O[C@H](C)C[C@H]3NC(=O)CNC(C)(C)C (some centres unmarked) [Compound 1351, Dihydrochloride] , thanks.
50

###

Counter-ions that a name gives are not always drawn.
As a worked illustration, we turn to MIC data collected for Strenotrophomonas maltophilia ATCC 13637.

MOLECULE	MIC
CN[C@@H]1[C@H](O)[C@H](NC)C2O[C@]3(O)C(OC2[C@H]1O)O[C@H](C)C[C@H]3NC(=O)CCc1cccnc1 (some centres unmarked) [Compound 1299, Dihydrochloride]	> 200 µg/mL

Need MIC of CN[C@@H]1[C@H](O)[C@H](NC)C2O[C@]3(O)C(OC2[C@H]1O)O[C@H](C)C[C@H]3NC(=O)c1cccc2cccnc12 (some centres unmarked) [Compound 1536, trihydrobromide] , thanks.
> 200 µg/mL

Need MIC of CN[C@@H]1[C@H](O)[C@H](NC)C2O[C@]3(O)C(OC2[C@H]1O)O[C@H](C)C[C@H]3NC(=O)c1ccc(F)cc1 (some centres unmarked) [Compound 1364, Dihydrochloride] , thanks.
> 200 µg/mL

Need MIC of CN[C@@H]1[C@H](O)[C@H](NC)C2O[C@]3(O)C(OC2[C@H]1O)O[C@H](C)C[C@H]3NC(=O)Cc1ccc(C)cc1 (some centres unmarked) [Compound 1399, Dihydrochloride] , thanks.
> 200 µg/mL

Need MIC of CN[C@@H]1[C@H](O)[C@H](NC)C2O[C@]3(O)C(OC2[C@H]1O)O[C@H](C)C[C@H]3NC(=O)Cc1ccc(-c2ccccc2)cn1 (some centres unmarked) [Compound 1519, trihydrobromide] , thanks.
> 200 µg/mL

###

system: P. aeruginosa PAO1; assay: MIC determination by microbroth dilution; format: cell-based, Pseudomonas aeruginosa; settings: Pseudomonas aeruginosa
Counter-ions that a name gives are not always drawn.
REPORTED ENDPOINT: MIC (µg/mL)
Only the number, expressed in µg/mL, is required.

For orientation, consider the following solved cases.
COMPOUND	REPORTED ENDPOINT	MEASUREMENT UNITS	READOUT VALUE
CN[C@@H]1[C@H](O)[C@H](NC)[C@H]2O[C@@]3(O)C(=O)C[C@@H](C)O[C@H]3O[C@@H]2[C@H]1O [Spectinomycin, reference compound]	MIC	µg/mL	100
CN[C@@H]1[C@H](O)[C@H](NC)C2O[C@]3(O)C(OC2[C@H]1O)O[C@H](C)C[C@H]3NC(=O)Cc1ccc(-c2ccc(Cl)cc2)cn1 (some centres unmarked) [Compound 1535, trihydrobromide]	MIC	µg/mL	100
CN[C@@H]1[C@H](O)[C@H](NC)C2O[C@]3(O)C(OC2[C@H]1O)O[C@H](C)C[C@H]3NCCC(C)C (some centres unmarked) [Compound 1420, Trihydrochloride]	MIC	µg/mL	200

Need MIC of CN[C@@H]1[C@H](O)[C@H](NC)C2O[C@]3(O)C(OC2[C@H]1O)O[C@H](C)C[C@H]3NCc1ccco1 (some centres unmarked) [Compound 1422, Trihydrochloride] , thanks.
25

Need MIC of CN[C@@H]1[C@H](O)[C@H](NC)C2O[C@]3(O)C(OC2[C@H]1O)O[C@H](C)C[C@H]3NC(=O)CNC(C)(C)C (some centres unmarked) [Compound 1351, Dihydrochloride] , thanks.
200

Need MIC of CN[C@@H]1[C@H](O)[C@H](NC)C2O[C@]3(O)C(OC2[C@H]1O)O[C@H](C)C[C@H]3NC(=O)Cc1ccc(F)cc1 (some centres unmarked) [Compound 1367, Dihydrochloride] , thanks.
100

###

Attribute: MIC
tested on: Strenotrophomonas maltophilia ATCC 13637
Where a name gives a salt, the structure may show the parent alone.

For orientation, consider the following solved cases.
COMPOUND	TARGET OF ASSAY	READOUT VALUE
CN[C@@H]1[C@H](O)[C@H](NC)C2O[C@]3(O)C(OC2[C@H]1O)O[C@H](C)C[C@H]3NC(=O)Cc1csc(-c2ccccc2)n1 (stereo partly drawn) [Compound 1517, trihydrobromide]	Strenotrophomonas maltophilia ATCC 13637	> 200 µg/mL
CN[C@@H]1[C@H](O)[C@H](NC)C2O[C@]3(O)C(OC2[C@H]1O)O[C@H](C)C[C@H]3NC(=O)Cc1nccs1 (stereo partly drawn)	Strenotrophomonas maltophilia ATCC 13637	> 200 µg/mL

# evaluate next
Need MIC of CC[C@H](C)[C@H](N)C(=O)N[C@@H]1C[C@@H](C)OC2OC3C(O[C@]21O)[C@@H](NC)[C@@H](O)[C@@H](NC)[C@@H]3O (stereo partly drawn) [Compound 1485, Trihydrochloride] , thanks.
> 200 µg/mL

###

Attribute: MIC
test system: P. aeruginosa PAO1; assay: MIC determination by microbroth dilution; assay type: cell-based, Pseudomonas aeruginosa; details: Pseudomonas aeruginosa
Where a name gives a salt, the structure may show the parent alone.
Only the number, expressed in µg/mL, is required.

COMPOUND	MEASUREMENT UNITS	MIC
CN[C@@H]1[C@H](O)[C@H](NC)C2O[C@]3(O)C(OC2[C@H]1O)O[C@H](C)C[C@H]3NCc1ccc(C)cc1 (stereo partly drawn) [Compound 1425, Trihydrochloride]	µg/mL	200

Need MIC of CN[C@@H]1[C@H](O)[C@H](NC)C2O[C@]3(O)C(OC2[C@H]1O)O[C@H](C)C[C@H]3NCc1ccc(F)cc1 (stereo partly drawn) [Compound 1424, Trihydrochloride] , thanks.
200

###

As a worked illustration, we turn to MIC data collected for Strenotrophomonas maltophilia ATCC 13637.
Counter-ions that a name gives are not always drawn.

COMPOUND	MIC
CN[C@@H]1[C@H](O)[C@H](NC)C2O[C@]3(O)C(OC2[C@H]1O)O[C@H](C)C[C@H]3NC(=O)c1cnccn1 (stereo partly shown) [Compound 1453]	> 200 µg/mL
CN[C@@H]1[C@H](O)[C@H](NC)C2O[C@]3(O)C(OC2[C@H]1O)O[C@H](C)C[C@H]3NC(=O)Cc1ccc(OC)cc1 (stereo partly shown) [Compound 1446, Dihydrochloride]	> 200 µg/mL
CN[C@@H]1[C@H](O)[C@H](NC)C2O[C@]3(O)C(OC2[C@H]1O)O[C@H](C)C[C@H]3NC(=O)[C@@H](N)Cc1ccccc1 (stereo partly shown) [Compound 1515, Trihydrochloride]	> 200 µg/mL
CN[C@@H]1[C@H](O)[C@H](NC)C2O[C@]3(O)C(OC2[C@H]1O)O[C@H](C)C[C@H]3NC(=O)Cc1cscn1 (stereo partly shown) [Compound 1443, trihydrobromide]	> 200 µg/mL
CN[C@@H]1[C@H](O)[C@H](NC)C2O[C@]3(O)C(OC2[C@H]1O)O[C@H](C)C[C@H]3NC(=O)[C@@H](O)CCN (stereo partly shown) [Compound 1493, trihydrochloride]	> 200 µg/mL

Need MIC of CN[C@@H]1[C@H](O)[C@H](NC)C2O[C@]3(O)C(OC2[C@H]1O)O[C@H](C)C[C@H]3NC(=O)CCc1ccccn1 (stereo partly shown) [Compound 1518, trihydrobromide] , thanks.
> 200 µg/mL

Need MIC of CN[C@@H]1[C@H](O)[C@H](NC)C2O[C@]3(O)C(OC2[C@H]1O)O[C@H](C)C[C@H]3NC(=O)Cc1ccc(-c2cccc(OC)c2)cn1 (stereo partly shown) [Compound 1543] , thanks.
200 µg/mL

Need MIC of CN[C@@H]1[C@H](O)[C@H](NC)C2O[C@]3(O)C(OC2[C@H]1O)O[C@H](C)C[C@H]3NC(=O)[C@H](C)N (stereo partly shown) [Compound 1467, Trihydrochloride] , thanks.
100 µg/mL

Need MIC of CN[C@@H]1[C@H](O)[C@H](NC)C2O[C@]3(O)C(OC2[C@H]1O)O[C@H](C)C[C@H]3NC(=O)Cc1csc(Nc2ccc(F)cc2)n1 (stereo partly shown) [Compound 1538] , thanks.
> 200 µg/mL

Reference for the values: patent US9284325B2
